# experimental system: HRgpA-6H (Porphyromonas gingivalis) (UniProt P28784)
# test details: ELISA, Fab FASEBA supernatant on coated HRgpA-6H (0.0625 ug/ml)
Examples of binders with documented OD450nm follow.
Number, no unit, nothing else.

See these solved cases before continuing.
KB001 parental mouse Fab VH variant K64M (Fab, V domains shown) VH: EVQLKQSGPGLVAPSQSLSITCTVSGFSLSIYSVHWVRQPPGKGLEWLGMIWGGGSSDYNSALMSRLSISKDNSKSQVFLKMNSLQTDDTAMYYCARNGNFYAMDYWGQGTSVTVSS VL: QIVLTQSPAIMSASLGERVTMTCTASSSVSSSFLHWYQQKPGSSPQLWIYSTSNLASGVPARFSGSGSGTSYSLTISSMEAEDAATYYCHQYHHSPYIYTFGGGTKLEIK : 0.784
KB001 parental mouse Fab VH variant K64D (Fab, V domains shown) VH: EVQLKQSGPGLVAPSQSLSITCTVSGFSLSIYSVHWVRQPPGKGLEWLGMIWGGGSSDYNSALDSRLSISKDNSKSQVFLKMNSLQTDDTAMYYCARNGNFYAMDYWGQGTSVTVSS VL: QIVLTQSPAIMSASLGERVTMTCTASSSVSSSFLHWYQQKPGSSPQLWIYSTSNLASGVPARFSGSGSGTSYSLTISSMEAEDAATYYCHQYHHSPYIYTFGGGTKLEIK : 0.781

Data request: Please report the recorded OD450nm for KB001 parental mouse Fab VH variant Y106D (Fab, V domains shown) VH: EVQLKQSGPGLVAPSQSLSITCTVSGFSLSIYSVHWVRQPPGKGLEWLGMIWGGGSSDYNSALKSRLSISKDNSKSQVFLKMNSLQTDDTAMYYCARNGNFYAMDDWGQGTSVTVSS VL: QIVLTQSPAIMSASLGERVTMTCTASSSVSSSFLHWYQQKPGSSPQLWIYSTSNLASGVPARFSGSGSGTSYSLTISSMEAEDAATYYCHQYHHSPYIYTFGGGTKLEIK .
Data returned: 0.675
